EXPERIMENT: Single-stage extraction of 2% aqueous bioproduct solutions with extractant (Examples 1-9)
Assay type: physicochemical
DETAILS: 100 g of 2% aqueous solution mixed with 100 g extractant of 80% 1-butene + 20% DME, pressure vessel, ambient temperature; extract phase
Kindly state Extract Bioproduct conc. (%) for each of the entries shown.
Express the reported value numerically, then name its unit.

Worked cases, Extract Bioproduct conc. (%) given:
O=C(O)CCC(=O)O [Succinic Acid]
0.22%
CCCC(=O)OC [Methyl Butyrate]
2.12%
CCC(=O)O [Propionic Acid]
1.09%
O=Cc1ccco1 [Furfural]
0.162%
CCCC(C)=O [2-Pentanone]
1.89%

Could you report Extract Bioproduct conc. (%) for every entry in the following list?
1. O=C1CCCO1 [Gamma Butyrolactone]
2. CCCC=O [Butanal]
3. O=C(O)CCCC(=O)O [Glutaric Acid]

["0.172%", "1.85%", "0.56%"]

====

EXPERIMENT: Single-stage extraction of 2% aqueous bioproduct solutions with extractant (Examples 1-9)
Assay type: physicochemical
DETAILS: extract/raffinate, extractant 80% 1-butene + 20% DME, ambient temperature (Table 1)
EXPERIMENTAL_READOUT: DC (bioproduct distribution coefficient)
Answers are plain numbers.

Worked cases, DC (bioproduct distribution coefficient) given:
O=Cc1ccco1
3.54
O=C(O)CCCC(=O)O
0.43
O=C1CCCO1
4.63
CCCC=O
7.16
CCC(=O)O
1.18
CCCC(C)=O
8.45
O=C(O)CCC(=O)O
0.13

Now consider the entry below.
Give the measured DC (bioproduct distribution coefficient) of CCCC(=O)OC [Methyl Butyrate] .
61.1

====

EXPERIMENT: Single-stage extraction of 2% aqueous bioproduct solutions with extractant (Examples 1-9)
Assay type: physicochemical
DETAILS: extractant 100% DME (Table 2)
Description: Extraction of various bioproducts with an extractant composed of 80% 1-butene and 20% dimethylether (DME) 100 grams (g) of aqueous solutions of various bioproducts were prepared. Bioproduct initial concentration was 2%. […] The amount of formed extract and formed raffinate and the concentration (conc.) of the bioproduct in each were determined. […] Also determined was the concentration of DME in the raffinate. […]
Assign Y to entries whose Distribution coefficient, 100% DME meets or exceeds 4; assign N to the rest.

CCCC(=O)OC [Methyl Butyrate]
Y
O=C1CCCO1
N
CCCC=O
Y
CCCC(C)=O
Y
O=C(O)CCC(=O)O
N
O=C(O)CCCC(=O)O
N
CCC(=O)O
N

Pending compound:
Kindly determine if Distribution coefficient, 100% DME recorded for O=Cc1ccco1 is above or exactly 4.
N

====

EXPERIMENT: Single-stage extraction of 2% aqueous bioproduct solutions with extractant (Examples 1-9)
Format: physicochemical
DETAILS: 100 g of 2% aqueous solution mixed with 100 g extractant of 80% 1-butene + 20% DME, ambient temperature; raffinate phase
EXPERIMENTAL_READOUT: Raffinate Bioproduct conc. (%)
Answers are plain numbers, in %.

Worked cases, Raffinate Bioproduct conc. (%) given:
CCCC(C)=O
0.22
O=C1CCCO1
0.37
CCC(=O)O
0.92
O=C(O)CCCC(=O)O
1.37
CCCC=O
0.26
CCCC(=O)OC [Methyl Butyrate]
0.034

Could you report Raffinate Bioproduct conc. (%) for every entry in the following list?
1. O=Cc1ccco1
2. O=C(O)CCC(=O)O

0.46
1.66

Origin of the recorded values: patent US20180087023A1
